measured target: soluble guanylate cyclase (sGC) (Homo sapiens, UniProt Q02108+Q02153)
Construct: endogenously expressing soluble guanylate cyclase (sGC); endogenous in cells; host or cells: HEK293
test name: sGC-HEK-cGMP assay (run with SNP incubation)
Type: cell-based
measurement setup: concentration that would elicit 10% of the Emax in the presence of 10 μM SNP; Table 3E
measurement name: HEK MEC-10

Reference set, count: 4
Nc1ccnc(-c2cc(-c3ccon3)n(Cc3cccc(Cl)c3F)n2)n1 [Compound 78] ... B (0.01 to <0.1 μM)
Oc1nc(-c2cc(-c3ccon3)n(Cc3cccc(F)c3F)n2)ncc1Cl [Compound 76] ... B (0.01 to <0.1 μM)
CC(=O)Nc1cnc(-c2cc(-c3ccon3)n(Cc3cccc(F)c3F)n2)nc1N [Compound 80] ... C (0.1 to <1 μM)
Oc1nc(-c2cc(-c3ccon3)n(Cc3cccc(Cl)c3F)n2)ncc1Cl [Compound 82] ... B (0.01 to <0.1 μM)

Request: GET /values?readout=HEK MEC-10&item= O=c1ccnc(-c2cc(-c3ccon3)n(Cc3cccc(Cl)c3F)n2)[nH]1 [Compound 81]
Response: C (0.1 to <1 μM)

Request: GET /values?readout=HEK MEC-10&item= O=c1[nH]c(-c2cc(-c3ccon3)n(Cc3ccc(F)cc3F)n2)ncc1F [Compound 70]
Response: C (0.1 to <1 μM)

###

System: Guinea pig tracheal smooth muscle (GPTSM)
test name: Electrical field stimulated guinea pig tracheal smooth muscle in vitro (ex vivo) model of bronchodilation
measurement setup: Cavia porcellus; guinea pig tracheal strips, sub-maximal EFS; 95% CI 0.78-0.94; read-out: IC50, inhibition of EFS-induced tracheal smooth muscle contraction
measurement name: IC50 (nM)
Reply numerically in nM, unit not repeated.

Request: GET /values?readout=IC50&item= CC(C)[N+]1(C)[C@@H]2CC[C@H]1C[C@@H](OC(=O)C(CO)c1ccccc1)C2 (stereo partly shown) [Ipratropium bromide]
Response: 0.86

###

measured target: soluble guanylate cyclase (sGC) (Homo sapiens, UniProt Q02108+Q02153)
Construct: endogenously expressing soluble guanylate cyclase (sGC); endogenous in cells; host or cells: HEK293
Sequence (Q02153 1-619): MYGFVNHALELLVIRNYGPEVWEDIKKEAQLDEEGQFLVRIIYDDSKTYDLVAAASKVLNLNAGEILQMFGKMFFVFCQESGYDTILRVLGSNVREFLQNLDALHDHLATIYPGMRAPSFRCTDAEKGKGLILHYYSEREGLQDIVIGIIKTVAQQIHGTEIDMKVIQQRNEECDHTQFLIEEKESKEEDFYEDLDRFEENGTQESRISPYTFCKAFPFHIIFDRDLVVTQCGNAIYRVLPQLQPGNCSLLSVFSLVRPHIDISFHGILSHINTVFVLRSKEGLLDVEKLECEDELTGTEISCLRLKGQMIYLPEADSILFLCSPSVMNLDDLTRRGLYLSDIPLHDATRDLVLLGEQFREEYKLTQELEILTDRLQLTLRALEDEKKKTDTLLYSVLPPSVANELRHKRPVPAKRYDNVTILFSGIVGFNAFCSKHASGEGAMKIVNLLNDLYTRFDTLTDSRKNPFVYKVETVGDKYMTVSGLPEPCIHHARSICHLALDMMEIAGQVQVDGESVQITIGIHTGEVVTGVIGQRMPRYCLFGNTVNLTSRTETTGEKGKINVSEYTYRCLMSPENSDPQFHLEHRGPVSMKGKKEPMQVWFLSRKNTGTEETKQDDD
Sequence (Q02108 1-690): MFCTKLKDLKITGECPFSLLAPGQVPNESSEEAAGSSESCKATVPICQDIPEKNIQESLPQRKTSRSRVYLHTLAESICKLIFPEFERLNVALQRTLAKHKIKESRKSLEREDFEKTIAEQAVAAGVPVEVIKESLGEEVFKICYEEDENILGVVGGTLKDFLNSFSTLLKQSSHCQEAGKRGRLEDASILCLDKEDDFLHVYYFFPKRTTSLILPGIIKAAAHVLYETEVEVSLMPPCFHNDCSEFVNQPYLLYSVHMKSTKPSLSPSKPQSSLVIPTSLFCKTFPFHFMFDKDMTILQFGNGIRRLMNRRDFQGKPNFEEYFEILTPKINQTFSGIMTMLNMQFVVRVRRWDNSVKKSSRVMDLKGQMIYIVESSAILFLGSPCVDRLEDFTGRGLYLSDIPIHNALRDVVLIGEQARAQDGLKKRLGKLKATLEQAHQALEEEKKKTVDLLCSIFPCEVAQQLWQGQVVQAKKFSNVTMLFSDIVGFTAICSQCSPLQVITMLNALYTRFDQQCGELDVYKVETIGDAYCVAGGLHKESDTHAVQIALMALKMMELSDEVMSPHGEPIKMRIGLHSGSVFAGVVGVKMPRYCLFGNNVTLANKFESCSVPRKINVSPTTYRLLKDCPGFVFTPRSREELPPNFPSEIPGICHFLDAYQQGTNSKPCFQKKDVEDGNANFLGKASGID
test name: sGC-HEK-cGMP assay (run with SNP incubation)
Type: cell-based
measurement setup: Table 3B; top of concentration-response curve not fitted to 100%; 10 μM SNP; 100% = 30 μM BAY 41-2272 with 10 μM SNP; read-out: HEK assay Emax-unconstrained (Percent)
Reported Emax values for the following compounds.

Reference set, count: 5
Nc1nc(-c2cc(-c3ccon3)n(Cc3ccccc3F)n2)ncc1NC(=O)C1(N)CC1 ... 80 to 100%
O=c1[nH]c(-c2cc(-c3ccon3)n(Cc3ccc(F)cc3F)n2)ncc1F ... 40 to 60%
Nc1nc(-c2cc(-c3ccon3)n(Cc3cccc(F)c3F)n2)ncc1NC(=O)c1ccc(F)cc1 ... 80 to 100%
Oc1nc(-c2cc(-c3ccco3)n(Cc3ccccc3F)n2)ncc1F ... 40 to 60%
Nc1ccnc(-c2cc(-c3ccon3)n(Cc3ccc(F)cc3F)n2)n1 ... 60 to 80%

Request: GET /values?readout=Emax&item= N#Cc1cc(-c2ncc(F)c(=O)[nH]2)nn1Cc1ccccc1F
Response: 40 to 60%

Request: GET /values?readout=Emax&item= O=c1[nH]c(-c2cc(-c3ccon3)n(Cc3ccccc3F)n2)nc(CF)c1F
Response: 40 to 60%

Request: GET /values?readout=Emax&item= Nc1ccnc(-c2cc(-c3ccon3)n(Cc3cc(F)ccc3F)n2)n1
Response: 60 to 80%

Request: GET /values?readout=Emax&item= Oc1ccnc(-c2cc(-c3ccon3)n(Cc3cccc(F)c3F)n2)n1
Response: 60 to 80%

###

measured target: soluble guanylate cyclase (sGC) (Homo sapiens, UniProt Q02108+Q02153)
Construct: endogenously expressing soluble guanylate cyclase (sGC); endogenous in cells; host or cells: HEK293
test name: sGC-HEK-cGMP assay (run with SNP incubation)
Assay type: cell-based
measurement setup: in the presence of 10 μM SNP; top of concentration-response curve not fitted to 100%; Table 3F; read-out: HEK assay EC50-unconstrained
Experimental: Biological Activity Measurement by the sGC-HEK-cGMP Assay (Assay Run with SNP Incubation) Human embryonic kidney cells (HEK293), endogenously expressing soluble guanylate cyclase (sGC), were used to evaluate the activity of test compounds. Compounds stimulating the sGC receptor should cause an increase in the intracellular concentration of cGMP. […] EC50 values were calculated from concentration-response curves generated with GraphPad Prism Software.
pEC50: −log10 of the molar value.
measurement name: pEC50

Request: GET /values?readout=pEC50&item= Nc1nc(-c2cc(-c3ccon3)n(Cc3cccc(F)c3F)n2)ncc1NC(=O)c1ccc[nH]1
Response: 6.30 to 8.00

Request: GET /values?readout=pEC50&item= NC1=NNC2NC(c3cc(-c4ccon4)n(Cc4ccccc4F)n3)=NC=C12 (stereo not drawn)
Response: 6.00 to 6.30

Request: GET /values?readout=pEC50&item= Cn1cnc2nc(-c3cc(-c4ccon4)n(Cc4ccccc4F)n3)ncc21
Response: 4.30 to 5.00

Request: GET /values?readout=pEC50&item= Nc1nc(-c2cc(-c3ccon3)n(Cc3cccc(F)c3F)n2)ncc1NC(=O)c1ccc(C(F)(F)F)cc1
Response: 6.30 to 8.00

Request: GET /values?readout=pEC50&item= CC1(C)C(=O)Nc2nc(-c3cc(-c4ccon4)n(Cc4ccccc4F)n3)ncc21
Response: 6.00 to 6.30

Request: GET /values?readout=pEC50&item= CC1(C)C(=O)Nc2nc(-c3cc(-c4ccon4)n(Cc4ccccc4F)n3)nc(N)c21
Response: 6.30 to 8.00

###

measured target: soluble guanylate cyclase (sGC) (Homo sapiens, UniProt Q02108+Q02153)
Construct: endogenously expressing soluble guanylate cyclase (sGC); endogenous in cells; host or cells: HEK293
test name: sGC-HEK-cGMP assay (run with SNP incubation)
Type: cell-based
measurement setup: concentration that would elicit 10% of the Emax in the presence of 10 μM SNP; Table 3D
measurement name: HEK MEC-10

CC1(C(=O)Oc2cnc(-c3cc(-c4ccon4)n(Cc4ccccc4F)n3)nc2N)CC1 ... C (0.1 to <1 μM)
Oc1nc(-c2cc(-c3cocn3)n(Cc3ccccc3F)n2)ncc1F ... C (0.1 to <1 μM)
Oc1nc(-c2cc(-c3ccon3)n(Cc3ccccc3F)n2)ncc1Sc1ccccn1 ... C (0.1 to <1 μM)
